Molecular target: KRas G12C (Homo sapiens, UniProt P01116, G12C)
Sequence (P01116 1-169 isoform P01116-2 G12C): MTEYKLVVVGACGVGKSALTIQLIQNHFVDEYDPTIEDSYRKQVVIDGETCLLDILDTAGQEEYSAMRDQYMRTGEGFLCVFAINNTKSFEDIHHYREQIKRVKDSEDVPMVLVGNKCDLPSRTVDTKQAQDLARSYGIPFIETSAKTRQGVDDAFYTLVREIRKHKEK
Type: binding
Settings: TR-FRET displacement, read-out: Binding to KRas (IC50 nM) G12C
READOUT TYPE: log10 IC50 (log10 of the value in nM)

>>> result_number("C=C1CN2CCCC2(COc2nc3c(c(N4CCCC5(CNS(=O)(=O)N5)C4)n2)CCN(c2cc(O)cc4ccc(F)c(CC)c24)C3)C1 (centres unmarked) [Example 712]")
0.30
>>> result_number("CCc1cccc2cccc(N3CCc4c(nc(OCC5(CN(C)C)CC5)nc4N4CC(C)CC(CO)C4)C3)c12 (centres unmarked) [Example 516]")
3.01
>>> result_number("Cc1cc2[nH]ncc2c(N2CCc3c(nc(OCC4(CN(C)C)CC4)nc3N3CCC[C@]4(C3)NC(=O)NC4=O)C2)c1C [Example 462]")
0.78
>>> result_number("C=C1CN2CC(=C)CC2(COc2nc3c(c(N4CCC[C@@](C)(O)C4)n2)CCN(c2cc(O)cc4ccc(F)c(CC)c24)C3)C1 [Example 582]")
0.30
>>> result_number("CN(C)C(=O)c1cc2n(n1)CCCN(c1nc(OC[C@@]34CCCN3C[C@H](F)C4)nc3c1CCN(c1cccc4cccc(Cl)c14)C3)C2 [Example 483]")
1.62
>>> result_number("Cc1cc2[nH]ncc2c(N2CCc3c(nc(OCC45CCCN4CCC5)nc3N3CCC[C@]4(C3)NC(=O)NC4=O)C2)c1C [Example 455]")
0.48
>>> result_number("CCc1cccc2cccc(N3CCc4c(nc(OCC5(CN(C)C)CC5)nc4NCc4ncc5c(n4)CCOC5)C3)c12 [Example 701]")
3.56
>>> result_number("Cc1cc2[nH]ncc2c(N2CCc3c(nc(OCC45CCCN4CCC5)nc3N3CCCC4(CC(=O)N4)C3)C2)c1C (centres unmarked) [Example 456]")
1.51
>>> result_number("CCc1cccc2cccc(N3CCc4c(nc(OCC5(CN(C)C)CC5)nc4NCC4COCC4n4cc(C(N)=O)nn4)C3)c12 (centres unmarked) [Example 705]")
4.04
>>> result_number("C[C@@]1(O)COCCN(c2nc(OC[C@@]34CCCN3C[C@H](F)C4)nc3c2CCN(c2ccc(F)c4sc(N)c(C#N)c24)C3)C1 [Example 710]")
1.68
>>> result_number("CCc1cccc2cccc(N3CCc4c(nc(OCC5(CN(C)C)CC5)nc4NC4CN(c5nccn6nc(C)cc56)C4)C3)c12 [Example 699]")
3.62
>>> result_number("CCc1cccc2cccc(N3CCc4c(nc(OCC5(CN(C)C)CC5)nc4N4CCn5nnc(CO)c5C4)C3)c12 [Example 517]")
3.65
>>> result_number("CCc1cccc2cccc(N3CCc4c(nc(OCC5(CN(C)C)CC5)nc4NCc4nnnn4C4CCC4)C3)c12 [Example 533]")
3.59
>>> result_number("CCc1cccc2cccc(N3CCc4c(nc(OCC56CCCN5CCC6)nc4N4CCC(O)CC(S(C)(=O)=O)C4)C3)c12 (single isomer, unassigned) [Example 479]")
1.91
>>> result_number("CCc1cccc2cccc(N3CCc4c(nc(OCC5(CN(C)C)CC5)nc4N4CCN(C(=O)c5c[nH]c(=O)[nH]5)CC4)C3)c12 [Example 536]")
3.67
>>> result_number("CCc1cccc2cccc(N3CCc4c(nc(OCC5(CN(C)C)CC5)nc4NC4CCCc5[nH]ncc54)C3)c12 (centres unmarked) [Example 542]")
3.46
>>> result_number("CCc1cccc2cccc(N3CCc4c(nc(OCC5(CN(C)C)CC5)nc4NCCc4nnc(N)o4)C3)c12 [Example 671]")
3.72
>>> result_number("Cc1cc2[nH]ncc2c(N2CCc3c(nc(OC[C@@]45CCCN4C[C@H](F)C5)nc3N3CCC[C@]4(C3)NC(=O)NC4=O)C2)c1C [Example 450]")
0.85
>>> result_number("CCc1cccc2cccc(N3CCc4c(nc(OCC5(CN(C)C)CC5)nc4N4CCCOC(CCO)C4)C3)c12 (centres unmarked) [Example 515]")
2.57
>>> result_number("CN(C)C(=O)c1cc2n(n1)CCCN(c1nc(OC[C@@]34CCCN3C[C@H](F)C4)nc3c1CCN(c1ccc(F)c4sc(N)c(C#N)c14)C3)C2 [Example 709]")
1.86
>>> result_number("CCc1cccc2cccc(N3CCc4c(nc(OCC5(CN(C)C)CC5)nc4NCCc4sc(N)nc4C)C3)c12 [Example 670]")
2.78
